- measurement.target: Carbonic anhydrase 1 (Homo sapiens, UniProt P00915)
- Sequence (P00915 whole entry): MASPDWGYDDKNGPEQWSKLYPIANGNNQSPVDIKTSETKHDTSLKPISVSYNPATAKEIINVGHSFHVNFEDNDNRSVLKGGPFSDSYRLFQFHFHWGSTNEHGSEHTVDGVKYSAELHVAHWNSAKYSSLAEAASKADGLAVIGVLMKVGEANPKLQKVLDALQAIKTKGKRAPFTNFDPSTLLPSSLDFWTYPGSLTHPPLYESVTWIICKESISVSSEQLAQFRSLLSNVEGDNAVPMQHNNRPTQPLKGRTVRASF
- experiment.notes: Inhibition of recombinant human carbonic anhydrase 1 incubated for 15 mins prior to testing by phenol red based stopped-flow CO2 hydration assay
# maps each entry to its Ki
measurement.name: Ki (µM)

COc1ccc(-n2nc(NC(=O)NCCc3ccc(S(N)(=O)=O)cc3)nc2-c2ccccc2)cc1 :: 0.0827
NS(=O)(=O)c1ccc(NC(=O)Nc2nc(-c3ccccc3)n(-c3ccc(F)cc3)n2)cc1 :: 2.25
COc1cccc(-n2nc(NC(=O)Nc3cccc(S(N)(=O)=O)c3)nc2-c2ccccc2)c1 :: 9.43
NS(=O)(=O)c1ccc(CCNC(=O)Nc2nc(-c3ccccc3)n(-c3ccc(F)cc3)n2)cc1 :: 0.0398
COc1ccc(-n2nc(NC(=O)NCCc3ccc(S(N)(=O)=O)cc3)nc2-c2ccccc2)cc1OC :: 0.153
COc1cccc(-n2nc(NC(=O)NCCc3ccc(S(N)(=O)=O)cc3)nc2-c2ccccc2)c1 :: 0.104
